target: CB1 (mutant) (Homo sapiens, UniProt P21554); assay: R-SAT functional receptor assay, CB1 (mutant, truncated after amino acid 417); type: cell-based; conditions: Appendix A; R-SAT CB1; receptor form not stated; relative to SR141716 (100%); read-out: % Inhibition
Sequence (P21554 1-417, change not shown): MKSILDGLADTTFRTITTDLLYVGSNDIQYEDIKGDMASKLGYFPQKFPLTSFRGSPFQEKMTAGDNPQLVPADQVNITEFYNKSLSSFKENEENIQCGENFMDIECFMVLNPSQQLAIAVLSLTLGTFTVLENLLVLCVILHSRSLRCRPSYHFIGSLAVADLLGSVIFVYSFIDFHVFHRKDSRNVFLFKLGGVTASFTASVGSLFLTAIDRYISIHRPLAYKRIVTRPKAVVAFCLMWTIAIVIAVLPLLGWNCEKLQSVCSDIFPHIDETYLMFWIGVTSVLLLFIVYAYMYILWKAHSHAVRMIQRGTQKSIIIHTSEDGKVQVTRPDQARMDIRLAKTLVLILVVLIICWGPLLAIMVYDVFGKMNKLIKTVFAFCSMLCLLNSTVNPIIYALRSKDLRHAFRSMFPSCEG
test_readout: Emax (%)
// note: answer is a bare numeric in %

Enquiry: Consider the compound shown here: CCCC1=Nc2cc(C(=O)NC(C)C34CC5CC(CC(C5)C3)C4)ccc2Sc2ccccc21 (stereo not drawn) What is its recorded Emax?
Return: 112

Enquiry: Consider the compound shown here: COc1ccc(C2=Nc3cc(C(=O)NNC(=O)c4ccccc4)ccc3Sc3ccccc32)cc1 [drawing 798] What is its recorded Emax?
Return: 83

Enquiry: Consider the compound shown here: CCCC1=Nc2cc(C(=O)NCCCc3ccccc3)ccc2Sc2ccccc21 [drawing 763] What is its recorded Emax?
Return: 104

Enquiry: Consider the compound shown here: O=C(NCc1ccco1)c1ccc2c(c1)N=C(c1ccc(Cl)c(Cl)c1)c1ccccc1S2 [drawing 691] What is its recorded Emax?
Return: 97

Enquiry: Consider the compound shown here: CCCCNC(=O)c1ccc2c(c1)N=C(c1ccc(Cl)cn1)c1ccc(F)cc1S2 [drawing 632] What is its recorded Emax?
Return: 95

Enquiry: Consider the compound shown here: CCCCNC(=O)c1ccc2c(c1)N=C(c1ccc(Cl)cc1)c1ccccc1S2(=O)=O What is its recorded Emax?
Return: 106

Enquiry: Consider the compound shown here: Cc1cccnc1C1=Nc2cc(C(=O)NCc3cccnc3)ccc2Sc2ccccc21 What is its recorded Emax?
Return: 39

Enquiry: Consider the compound shown here: C=C(/C=C\C1=CN=C(CCC)c2ccccc2S1)C(=O)NC1CCCC1 What is its recorded Emax?
Return: 109

Enquiry: Consider the compound shown here: O=C(c1ccc2c(c1)N=C(c1ccc(F)cc1)c1ccccc1S2)N1CCCCC1 [drawing 1163] What is its recorded Emax?
Return: 90

Enquiry: Consider the compound shown here: CON(C)C(=O)c1ccc2c(c1)N=C(c1sccc1C)c1ccccc1S2 What is its recorded Emax?
Return: 42

Enquiry: Consider the compound shown here: O=C(NCc1cccs1)c1ccc2c(c1)N=C(c1ccc(Cl)cc1)c1ccccc1S2 [drawing 751] What is its recorded Emax?
Return: 107

Enquiry: Consider the compound shown here: CCCC1=Nc2cc(C(=O)NCCCN3CCOCC3)ccc2Sc2ccccc21 What is its recorded Emax?
Return: 98

Enquiry: Consider the compound shown here: O=C(NN1CCCCC1)c1ccc2c(c1)N=C(c1ccccc1F)c1ccccc1S2 What is its recorded Emax?
Return: 104

Enquiry: Consider the compound shown here: O=C(NCc1cccc(Cl)c1)c1ccc2c(c1)N=C(N1CCCCC1)c1ccccc1S2(=O)=O [drawing 939] What is its recorded Emax?
Return: 91

###

target: native CB1 receptors (Rattus norvegicus, UniProt P20272); assay: CB1 receptor rat binding assay ([3H]SR141716A, rat brain membranes); conditions: rat brain membranes, [3H]SR141716A; read-out: Binding rat pKi (converted)
Sequence (P20272 whole entry): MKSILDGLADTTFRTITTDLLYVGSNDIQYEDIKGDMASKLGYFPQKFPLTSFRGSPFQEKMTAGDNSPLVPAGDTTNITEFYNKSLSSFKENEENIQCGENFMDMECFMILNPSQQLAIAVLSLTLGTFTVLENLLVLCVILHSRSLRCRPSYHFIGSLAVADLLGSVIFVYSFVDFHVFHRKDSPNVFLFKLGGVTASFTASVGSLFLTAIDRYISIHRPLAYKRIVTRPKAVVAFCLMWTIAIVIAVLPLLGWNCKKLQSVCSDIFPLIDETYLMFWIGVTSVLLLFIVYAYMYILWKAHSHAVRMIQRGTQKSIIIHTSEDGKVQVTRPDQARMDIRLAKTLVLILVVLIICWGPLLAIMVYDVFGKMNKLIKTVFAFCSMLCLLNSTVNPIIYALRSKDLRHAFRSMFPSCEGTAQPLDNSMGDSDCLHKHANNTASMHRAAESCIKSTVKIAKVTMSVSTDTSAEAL
Lab note: compare Ki with 10 nM, writing satisfied if less and not satisfied if equal or more.

Example entries and their recorded answers appear below.
INSERT INTO measurements (compound, class_label) VALUES
  ('O=C(NCCCC(F)(F)F)c1ccc2c(c1)N=C(c1ccccn1)c1ccccc1S2 [drawing 1473]', 'satisfied'),
  ('Cc1ccsc1C1=Nc2cc(C(=O)NN3[C@H](C)CCC[C@@H]3C)ccc2Sc2ccccc21 [drawing 1530]', 'not satisfied'),
  ('O=C(NCCC(F)(F)F)c1ccc2c(c1)N=C(c1ccc(Cl)cc1)c1ccccc1S2 [drawing 1360]', 'satisfied'),
  ('O=C(NCc1ccc(F)cc1)c1ccc2c(c1)N=C(c1ccccc1F)c1ccccc1S2 [drawing 1299]', 'not satisfied'),
  ('COc1ccc(C2=Nc3cc(C(=O)NC4CCCCC4)ccc3Sc3ccccc32)cc1 [drawing 1282]', 'satisfied');

Enquiry: Determine if CCCC1=Nc2cc(C(=O)NCCc3ccc(Cl)cc3)ccc2Sc2ccccc21 [drawing 1285] shows Ki strictly lower than 10 nM.
Return: not satisfied

Reference source for all entries: patent US20080090805A1
